Listed next: entries and their corresponding Biodistribution: Spleen.
experiment summary: Biodistribution of [111In]In-radiocomplexes in healthy mice
Format: in vivo
condition parameters: 1 h p.i.
reported metric: Biodistribution: Spleen (% I.D./g)

compound="O=C([O-])CN1CCN(CC(=O)[O-])CCN(CC(=O)NCc2ccc(-c3nncnn3)cc2)CCN(CC(=O)[O-])CC1.[111In+3] [[111In]In-DOTA-Tz]" observed_value=0.09
compound="O=C([O-])CN1CCN(CC(=O)[O-])CCN(C(CCC(=O)NCc2ccc(-c3nncnn3)cc2)C(=O)[O-])CCN(CC(=O)[O-])CC1.[111In+3] (stereo not shown) [[111In]In-DOTAGA-Tz]" observed_value=0.3
compound="O=C([O-])CN1CCN(CC(=O)[O-])CCN(C(CCC(=O)NCCOCCOCCOCCOCCOCCOCCOCCOCCOCCOCCOCCNC(=O)CCCC(=O)NCc2ccc(-c3nncnn3)cc2)C(=O)[O-])CCN(CC(=O)[O-])CC1.[111In+3] (stereo not shown) [[111In]In-DOTAGA-PEG-Tz]" observed_value=0.11
compound="O=C([O-])CN1CCN(CC(=O)[O-])CCN(CC(=O)NCCOCCOCCOCCOCCOCCOCCOCCOCCOCCOCCOCCNC(=O)CCCC(=O)NCc2ccc(-c3nncnn3)cc2)CCN(CC(=O)[O-])CC1.[111In+3] [[111In]In-DOTA-PEG-Tz]" observed_value=0.18

* * *

experiment summary: Biodistribution of [111In]In-radiocomplexes in healthy mice
Format: in vivo
condition parameters: 15 min p.i.
Listed next: entries and their corresponding Excretion.
reported metric: Excretion (% I.D.)

compound="O=C([O-])CN1CCN(CC(=O)[O-])CCN(CC(=O)NCc2ccc(-c3nncnn3)cc2)CCN(CC(=O)[O-])CC1.[111In+3] [[111In]In-DOTA-Tz]" reported_metric=Excretion observed_value=58.3
compound="O=C([O-])CN1CCN(CC(=O)[O-])CCN(C(CCC(=O)NCc2ccc(-c3nncnn3)cc2)C(=O)[O-])CCN(CC(=O)[O-])CC1.[111In+3] (stereo not shown) [[111In]In-DOTAGA-Tz]" reported_metric=Excretion observed_value=62.7
compound="O=C([O-])CN1CCN(CC(=O)[O-])CCN(CC(=O)NCCOCCOCCOCCOCCOCCOCCOCCOCCOCCOCCOCCNC(=O)CCCC(=O)NCc2ccc(-c3nncnn3)cc2)CCN(CC(=O)[O-])CC1.[111In+3] [[111In]In-DOTA-PEG-Tz]" reported_metric=Excretion observed_value=65.3
compound="O=C([O-])CN1CCN(CC(=O)[O-])CCN(C(CCC(=O)NCCOCCOCCOCCOCCOCCOCCOCCOCCOCCOCCOCCNC(=O)CCCC(=O)NCc2ccc(-c3nncnn3)cc2)C(=O)[O-])CCN(CC(=O)[O-])CC1.[111In+3] (stereo not shown) [[111In]In-DOTAGA-PEG-Tz]" reported_metric=Excretion observed_value=62.7

* * *

experiment summary: in vivo
condition parameters: male, NodCB17 SCID, mouse, salivary gland, iv, 0.061 nmol, total radioactivity
reported metric: tissue uptake at 0.25 h (%ID/g)

compound="CC(C)C[C@H](NC(=O)C[C@H](O)[C@H](CC(C)C)NC(=O)[C@H](Cc1c[nH]cn1)NC(=O)CNC(=O)[C@@H](NC(=O)[C@H](C)NC(=O)[C@H](Cc1c[nH]c2ccccc12)NC(=O)[C@H](CCC(N)=O)NC(=O)[C@@H](Cc1ccccc1)NC(=O)CCOCCOCCOCCOCCNC(=O)OC1CCCC2=CNN=C(c3ccc(CNC(=O)CN4CCN(CC(=O)O)CCN(CC(=O)O)CCN(CC(=O)O)CC4)cc3)C2CC1)C(C)C)C(N)=O (stereo partly shown) [[90Y]Y-DOTA-Tz-TCO-PEG4-AR, metal not drawn]" reported_metric="tissue uptake at 0.25 h" observed_value=3.69

* * *

experiment summary: in vivo
condition parameters: male, NodCB17 SCID, mouse, heart, iv, total radioactivity
reported metric: tissue uptake at 1 h (%ID/g)

compound="CC(C)C[C@H](NC(=O)C[C@H](O)[C@H](CC(C)C)NC(=O)[C@H](Cc1c[nH]cn1)NC(=O)CNC(=O)[C@@H](NC(=O)[C@H](C)NC(=O)[C@H](Cc1c[nH]c2ccccc12)NC(=O)[C@H](CCC(N)=O)NC(=O)[C@@H](Cc1ccccc1)NC(=O)CCOCCOCCOCCOCCNC(=O)OC1CCCC2=CNN=C(c3ccc(CNC(=O)CN4CCN(CC(=O)O)CCN(CC(=O)O)CCN(CC(=O)O)CC4)cc3)C2CC1)C(C)C)C(N)=O (stereo partly shown) [[111In]In-DOTA-Tz-TCO-PEG4-AR, metal not drawn]" observed_value=0.5

* * *

Listed next: entries and their corresponding Biodistribution: Muscle.
experiment summary: Biodistribution of [111In]In-radiocomplexes in healthy mice
Assay type: in vivo
condition parameters: 15 min p.i.
reported metric: Biodistribution: Muscle (% I.D./g)

molecule="O=C([O-])CN1CCN(CC(=O)[O-])CCN(CC(=O)NCCOCCOCCOCCOCCOCCOCCOCCOCCOCCOCCOCCNC(=O)CCCC(=O)NCc2ccc(-c3nncnn3)cc2)CCN(CC(=O)[O-])CC1.[111In+3] [[111In]In-DOTA-PEG-Tz]" u="% I.D./g" observed_value=0.9
molecule="O=C([O-])CN1CCN(CC(=O)[O-])CCN(C(CCC(=O)NCc2ccc(-c3nncnn3)cc2)C(=O)[O-])CCN(CC(=O)[O-])CC1.[111In+3] (stereo not shown) [[111In]In-DOTAGA-Tz]" u="% I.D./g" observed_value=0.9
molecule="O=C([O-])CN1CCN(CC(=O)[O-])CCN(C(CCC(=O)NCCOCCOCCOCCOCCOCCOCCOCCOCCOCCOCCOCCNC(=O)CCCC(=O)NCc2ccc(-c3nncnn3)cc2)C(=O)[O-])CCN(CC(=O)[O-])CC1.[111In+3] (stereo not shown) [[111In]In-DOTAGA-PEG-Tz]" u="% I.D./g" observed_value=0.86
molecule="O=C([O-])CN1CCN(CC(=O)[O-])CCN(CC(=O)NCc2ccc(-c3nncnn3)cc2)CCN(CC(=O)[O-])CC1.[111In+3] [[111In]In-DOTA-Tz]" u="% I.D./g" observed_value=1.1

* * *

experiment summary: Biodistribution of [111In]In-radiocomplexes in healthy mice
Type: in vivo
condition parameters: 15 min p.i.
reported metric: Biodistribution: Stomach (% I.D./g)

compound="O=C([O-])CN1CCN(CC(=O)[O-])CCN(C(CCC(=O)NCc2ccc(-c3nncnn3)cc2)C(=O)[O-])CCN(CC(=O)[O-])CC1.[111In+3] (stereo not shown) [[111In]In-DOTAGA-Tz]" observed_value=0.6
compound="O=C([O-])CN1CCN(CC(=O)[O-])CCN(C(CCC(=O)NCCOCCOCCOCCOCCOCCOCCOCCOCCOCCOCCOCCNC(=O)CCCC(=O)NCc2ccc(-c3nncnn3)cc2)C(=O)[O-])CCN(CC(=O)[O-])CC1.[111In+3] (stereo not shown) [[111In]In-DOTAGA-PEG-Tz]" observed_value=1.0
compound="O=C([O-])CN1CCN(CC(=O)[O-])CCN(CC(=O)NCCOCCOCCOCCOCCOCCOCCOCCOCCOCCOCCOCCNC(=O)CCCC(=O)NCc2ccc(-c3nncnn3)cc2)CCN(CC(=O)[O-])CC1.[111In+3] [[111In]In-DOTA-PEG-Tz]" observed_value=0.5
compound="O=C([O-])CN1CCN(CC(=O)[O-])CCN(CC(=O)NCc2ccc(-c3nncnn3)cc2)CCN(CC(=O)[O-])CC1.[111In+3] [[111In]In-DOTA-Tz]" observed_value=0.3

* * *

Listed next: entries and their corresponding Biodistribution: Pancreas.
experiment summary: Biodistribution of [111In]In-radiocomplexes in healthy mice
Format: in vivo
condition parameters: 1 h p.i.
reported metric: Biodistribution: Pancreas (% I.D./g)

compound="O=C([O-])CN1CCN(CC(=O)[O-])CCN(C(CCC(=O)NCc2ccc(-c3nncnn3)cc2)C(=O)[O-])CCN(CC(=O)[O-])CC1.[111In+3] (stereo not shown) [[111In]In-DOTAGA-Tz]" u="% I.D./g" observed_value=0.3
compound="O=C([O-])CN1CCN(CC(=O)[O-])CCN(C(CCC(=O)NCCOCCOCCOCCOCCOCCOCCOCCOCCOCCOCCOCCNC(=O)CCCC(=O)NCc2ccc(-c3nncnn3)cc2)C(=O)[O-])CCN(CC(=O)[O-])CC1.[111In+3] (stereo not shown) [[111In]In-DOTAGA-PEG-Tz]" u="% I.D./g" observed_value=0.12
compound="O=C([O-])CN1CCN(CC(=O)[O-])CCN(CC(=O)NCc2ccc(-c3nncnn3)cc2)CCN(CC(=O)[O-])CC1.[111In+3] [[111In]In-DOTA-Tz]" u="% I.D./g" observed_value=0.06
compound="O=C([O-])CN1CCN(CC(=O)[O-])CCN(CC(=O)NCCOCCOCCOCCOCCOCCOCCOCCOCCOCCOCCOCCNC(=O)CCCC(=O)NCc2ccc(-c3nncnn3)cc2)CCN(CC(=O)[O-])CC1.[111In+3] [[111In]In-DOTA-PEG-Tz]" u="% I.D./g" observed_value=0.09
